# measurementTarget: recombinant soluble homotrimeric HA, A/Netherlands/219/03 H7N7 (Influenza A virus A/Netherlands/219/03(H7N7))
# testName: microarray, transfection SN IgG, trimeric HA
# reportedConditions: remark: other sources report otherwise
endpointName: Trimeric HA Binding: RLU (RLU)
Your answer is read as RLU, so omit the unit and give the number.

Worked examples follow.
TCN-550 (5096_F06) (antibody, V domains shown) VH: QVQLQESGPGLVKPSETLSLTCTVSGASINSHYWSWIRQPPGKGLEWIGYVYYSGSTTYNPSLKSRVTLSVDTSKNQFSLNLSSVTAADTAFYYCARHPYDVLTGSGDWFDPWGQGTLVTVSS VL: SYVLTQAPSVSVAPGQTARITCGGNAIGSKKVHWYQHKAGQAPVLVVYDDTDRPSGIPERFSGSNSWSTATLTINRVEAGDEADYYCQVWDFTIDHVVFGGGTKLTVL ... 3250
TCN-552 (5249_I23) (antibody, V domains shown) VH: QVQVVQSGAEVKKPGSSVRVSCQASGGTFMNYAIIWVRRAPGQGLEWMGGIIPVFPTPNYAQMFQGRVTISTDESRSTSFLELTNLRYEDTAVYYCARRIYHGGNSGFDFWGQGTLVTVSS VL: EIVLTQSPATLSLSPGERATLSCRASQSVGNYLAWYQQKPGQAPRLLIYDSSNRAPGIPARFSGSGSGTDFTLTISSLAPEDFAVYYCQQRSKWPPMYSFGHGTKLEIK ... 7420

Now, please, on to the next binder.
Look at this binder and give its reported Trimeric HA Binding: RLU. TCN-554 (5277_M05) (antibody, V domains shown) VH: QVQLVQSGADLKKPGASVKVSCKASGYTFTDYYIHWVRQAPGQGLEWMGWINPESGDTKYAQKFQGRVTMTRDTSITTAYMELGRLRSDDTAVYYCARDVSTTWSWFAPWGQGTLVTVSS VL: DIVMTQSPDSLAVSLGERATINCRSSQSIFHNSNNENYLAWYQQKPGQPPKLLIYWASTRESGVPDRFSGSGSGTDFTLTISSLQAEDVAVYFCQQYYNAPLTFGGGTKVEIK
4520
